Can you tell me log10 of IC50 for the items I'm about to list?
- Target Desc: type IV phosphodiesterase
- Method Summary: Type IV phosphodiesterase inhibition activity measuring test (in vitro)
- Assay type: biochemical
- Study Conditions: Table 2; human granulocyte type IV PDE, 1 μM cAMP, 30° C.; read-out: Type IV PDE Inhibition IC50
Field: value | Transform: log10 | Quantity: IC50 | Unit: nM

# input Fill in the blank: the reported log10 of IC50 of CCc1ccc2c(-c3cccc(Cl)c3)nc(=O)n(CC)c2n1 is ____.
# output -0.09

# input Give its log10 of IC50 value. Item: CCn1c(=O)nc(-c2cccc(C)c2)c2cccnc21 [compound 8, reference compound]
# output 2.79

# input I am curious: what log10 of IC50 value has been reported for CC(C)n1c(=O)nc(-c2cccc(Cl)c2)c2cccnc21 [compound 6, reference compound] ?
# output 2.90

# input State the recorded log10 of IC50 for this entry: CCn1c(=O)nc(-c2cccc(C)c2)c2ccc(C)nc21
# output 0.54

# input Quick check: log10 of IC50 of CCn1c(=O)nc(-c2cccc(Cl)c2)c2ccc(C)nc21 ?
# output 0.37

# input Query: log10 of IC50; subject: CCn1c(=O)nc(-c2cccc(Br)c2)c2ccc(C)nc21
# output 0.16

# input Which log10 of IC50 is listed for CCn1c(=O)nc(-c2ccccc2Cl)c2cccnc21 [compound 1, reference compound] ?
# output 3.45

# input Data request, read-out log10 of IC50, for CCc1ccc2c(-c3cccc(C)c3)nc(=O)n(CC)c2n1
# output 0.57

# input Could you share which log10 of IC50 value was measured for CCn1c(=O)nc(-c2cccc(Cl)c2)c2cccnc21 [compound 7, reference compound] ?
# output 2.49

# input Please look up its log10 of IC50: CCc1ccc2c(-c3cccc(Br)c3)nc(=O)n(CC)c2n1
# output 0.06
